test: gradient 5% acetonitrile 3 min, to 50% in 2 min, to 85% in 15 min, held 3 min, 100 µL/min; conditions: column: Zorbax Extend-C18 2.1 x 50 mm; eluents: water / acetonitrile, 0.1% formic acid
readoutKind: RP-LC retention time (s)
Numeric only. Scale: s

Query block: I am curious: what RP-LC retention time value has been reported for O=C(NC1CC1)c1ccc2c(c1)CCN2C(=O)C1CC1 ?
Result block: 673

Query block: I am curious: what RP-LC retention time value has been reported for Cn1c(N2CCCC(C(=O)N3CCN(c4ncccn4)CC3)C2)cc(=O)n(C)c1=O (stereo not given) ?
Result block: 618

Query block: I am curious: what RP-LC retention time value has been reported for CSc1cccc(NC(=O)N2CCN(Cc3nc4ccc(C)cc4o3)CC2)c1 ?
Result block: 776

Query block: I am curious: what RP-LC retention time value has been reported for Cc1ccc(CNCCSc2nnnn2C)s1 ?
Result block: 580

Query block: I am curious: what RP-LC retention time value has been reported for CCCn1cc(S(=O)(=O)NCc2cccc(Cl)c2)c2cccnc21 ?
Result block: 950

====

assay: gradient 5% acetonitrile 3 min, to 50% in 2 min, to 85% in 15 min, held 3 min, 100 µL/min; settings: column: Zorbax Extend-C18 2.1 x 50 mm; eluents: water / acetonitrile, 0.1% formic acid
I'd appreciate it if you marked entries 1 when RP-LC retention time is lower than 700 s and -1 when it is not.

Query block: For O=C1NC2(CCN(C(=O)c3cc(F)cc(F)c3)CC2)Nc2cc(Cl)ccc21 , is the recorded RP-LC retention time below the cut-off of 700 s?
Result block: -1

Query block: For CCNC(=O)N1CCCC1c1nc(C2CCOCC2)no1 (stereo not given) , is the recorded RP-LC retention time below the cut-off of 700 s?
Result block: 1

Query block: For CC1CCC(NC(=O)C2CCN(C(=O)c3ncn4c3COC(c3ccccc3)C4)CC2)CC1 (stereo not given) , is the recorded RP-LC retention time below the cut-off of 700 s?
Result block: -1

Query block: For O=C([C@@H]1C[C@H](F)CN1C(=O)Nc1cccc(F)c1)N1CCOCC1 , is the recorded RP-LC retention time below the cut-off of 700 s?
Result block: 1

Query block: For O=C(NC1CCN(c2nnc3ccccn23)CC1)c1cccc(F)c1 , is the recorded RP-LC retention time below the cut-off of 700 s?
Result block: 1

Query block: For COc1ccccc1-c1nnc(C2CCN(S(C)(=O)=O)CC2)s1 , is the recorded RP-LC retention time below the cut-off of 700 s?
Result block: -1

Query block: For Fc1ccc(-c2nnc(Cc3nc(-c4ccccc4F)no3)o2)cc1 , is the recorded RP-LC retention time below the cut-off of 700 s?
Result block: -1

Query block: For COc1cccc(-c2nc(-c3cn(Cc4cccc(F)c4)nn3)no2)c1 , is the recorded RP-LC retention time below the cut-off of 700 s?
Result block: -1

Query block: For O=C(NCCc1cccs1)C1CCN(Cc2cc3ccccc3n2Cc2ccc(Cl)cc2)CC1 , is the recorded RP-LC retention time below the cut-off of 700 s?
Result block: -1

Query block: For O=Cc1ccc(O)c2ncccc12 , is the recorded RP-LC retention time below the cut-off of 700 s?
Result block: 1
